Test: Primary qHTS for delayed death inhibitors of the malarial parasite plastid, 96 hour incubation
Details: P. falciparum luciferase reporter growth; series mostly up to 28.7 µM
In all, about 320,000 compounds went through this assay and about 22,000 (6.9%) were called active. About 27% were inconclusive and are not listed. Calls come from the whole dose curve; as a rule, active = well fitted inhibition curve with a large enough effect; inconclusive = small, poorly fitted or top-dose-only effect, or another doubt; inactive = no such curve, though single readings can be large or run the other way. This is one part of a sample in which actives are shown more often than they occur.
Classes used: T (active), F (inactive)

- CCCc1cc(C(=O)Nc2ccc(Cl)cn2)cs1: F
- CCCCCNC(=O)C1c2ccccc2Oc2ccccc21: F
- CCS(=O)(=O)Nc1cc(C(=O)OC)ccc1C(=O)OC: T
- O=c1cc(N2CCCCC2)c(-c2ccccc2)nn1Cc1cccc(F)c1: T
- O=C1CCC(C(=O)N2CCC(O)(c3ccccc3)CC2)CN1CCc1ccccc1 (stereo not drawn): F
- O=c1c(-c2cccc(Cl)c2)c[nH]n1-c1ccccc1: T
- O=c1c2ccccc2c(-c2ccccc2)nn1Cc1ccccc1: F
- O=C(N/N=C/c1ccc(O)c2ccccc12)c1cccnc1: F
- c1ccc(C2=Nc3cccc4cccc(c34)N2)cc1: T
- CCN(CCO)C(=S)Nc1cc(C(=O)OC)ccc1C(=O)OC: F
- Cc1cnc(C)c(N2CCN(C(=O)C3CCC(=O)N(CCc4cccc(F)c4)C3)CC2)n1 (stereo not drawn): T
- O=C(N/N=C/c1sc(N2CCCCC2)nc1-c1cccs1)c1cccnc1: T
- O=C(C1CCC1)N1CCN(c2ccccc2)CC1: F
- COC(=O)c1ccc(C(=O)OC)c(NC(=S)N2CCCCC2)c1: F
- Cc1cc(C)c(C(=O)CSc2nc(C)cc(=O)[nH]2)c(C)c1: F
- COc1ccc(C(=O)COC(=O)Cn2cnc3c2c(=O)n(C)c(=O)n3C)c(OC)c1: F
- Cc1cnc(C(=O)Oc2cccc(Cl)c2Cl)cn1: F
- Cc1cccc(C(=O)NC(=S)N(C)C2CCCCC2)c1: F
- Cc1ccc(S(=O)(=O)N(Cc2cccc([N+](=O)[O-])c2)C(=O)N2CCN(C)CC2)cc1: F
- Cc1cc(NC(=O)c2ccc(F)cc2)ccc1NC(=O)c1ccco1: F
- O=C(NCc1ccccc1Cl)c1ccc2c(=O)n(CC3CCCO3)c(=S)[nH]c2c1 (stereo not drawn): F
- O=C1CC(NNc2ccccc2)C(=O)N1c1cccc(Cl)c1 (stereo not drawn): F
- O=c1cc(N2CCN(Cc3ccccc3)CC2)c(-c2ccccc2)n[nH]1: F

---

Assay: Primary qHTS for delayed death inhibitors of the malarial parasite plastid, 96 hour incubation; note: potency is the fitted concentration of half-maximal effect
Conditions: P. falciparum luciferase reporter growth; series mostly up to 28.7 µM
The whole screen tested about 320,000 compounds, of which about 22,000 (6.9%) were called active. Inconclusive results (about 27%) are left out. Only a selection was taken, and actives are over-represented in it overall.
recorded.metric: Potency

* O=C(Cc1cccs1)Nc1cccc(-c2nc3ccccc3[nH]2)c1 | inactive
* O=C(Nc1cccc(NC(=O)c2ccc(Br)cc2)c1)c1ccccc1 | inactive
* CCn1ccnc1CN(C)C(=O)c1cc(COc2ccc(Cl)cc2OC)on1 | 3.7 µM (active)
* S=C(NNC(=S)NC1CC2C=CC1C2)NC1CC2C=CC1C2 (stereo unspecified) | 9.28 µM (active)
* O=c1o[nH]c(-c2ccccc2)c1N=Nc1c(F)cccc1Cl | inactive
* COc1cccc(/C=C2\C=C(c3ccc(C)cc3)OC2=O)c1OC(C)=O | inactive

---

Experiment: Primary qHTS for delayed death inhibitors of the malarial parasite plastid, 96 hour incubation
Conditions: P. falciparum luciferase reporter growth; series mostly up to 28.7 µM
The campaign covered roughly 320,000 compounds. About 22,000 (6.9%) were called active. About 27% were inconclusive and are not listed. Calls follow the shape of the dose curve; as a rule, active = well fitted inhibition curve with a large enough effect; inconclusive = small, poorly fitted or top-dose-only effect, or another doubt; inactive = no such curve, though single readings can be large or run the other way. The list comes from a sample in which actives are over-represented; it also holds close analogues and randomly drawn compounds.
Classes used: Y for active, N for inactive

* COc1cc(OC)nc(N/N=C(\c2ccccc2)c2ccncc2)n1 | Y
* COC(=O)c1ccccc1NC(=O)CSc1nc2c(c(=O)[nH]1)CCC2 | N
* COC(=O)C1=C(c2ccc(Cl)c(C(F)(F)F)c2)C[C@@H]2CC[C@H]1N2C(=O)NC1CC1 | Y
* O=C(Nc1ccnn1C1CCN(Cc2cccc(OCCO)c2)CC1)C1CCCC1 | N
* CCn1cc(C(=O)N2CC(C)CC(C)C2)c(=O)c2cc(S(=O)(=O)N3CCCC3)ccc21 (configuration not stated) | N
* CN(C(=O)COC(=O)c1cc(-c2ccco2)nc2ccccc12)C1CCS(=O)(=O)C1 (configuration not stated) | N
* COc1ccccc1CNC(=O)CN1CCC(n2cnc3cc(F)ccc32)CC1 | N
* COc1cnc(-c2ccccn2)nc1Oc1ccc(C(C)(C)C)cc1 | Y
* Cc1cc(C)n(CC(C)NCc2c(C(=O)N3CCOCC3)nc3c(C)cccn23)n1 (configuration not stated) | N
* C=CCn1c(=O)c(C(=O)NCc2ccc3c(c2)OCO3)c(O)c2ccccc21 | N
* COCC1CCN(C(=O)c2ccc3oc(Cc4ccccc4)nc3c2)C1 (configuration not stated) | N
* COc1ccc(C2/C(=C(/O)c3ccccc3)C(=O)C(=O)N2c2ncccn2)cc1OC (configuration not stated) | N
* Cc1ccc(Oc2nc(-c3ccccn3)nc3ccccc23)cc1 | Y
* COc1ccc(N(CC(=O)Nc2ccc(F)c(F)c2)S(=O)(=O)c2c(C)[nH]c(=O)[nH]c2=O)cc1 | N
* COc1ccc(Sc2nc(-c3ccccc3)ncc2OC)cc1 | N
* O=C(CSc1nc2ccccc2[nH]1)c1cccs1 | N
* COC(=O)c1cn(C)c2ccc(S(=O)(=O)N3CC(C)CC(C)C3)cc2c1=O (configuration not stated) | Y
* COc1ccc(C/C(C)=N/NC(=O)c2ccncc2)cc1 | N
* COc1cccc(N(CC(=O)NC2CCCCCC2)S(=O)(=O)c2ccccc2)c1 | Y
* O=C(CN(c1cccc(Cl)c1)S(=O)(=O)c1ccccc1)NN=C1CCCC1 | N
* CC(=O)c1cc(CN2CCC(n3nccc3NC(=O)c3ccccc3Cl)CC2)cs1 | N
* O=C(c1ccc(Cl)s1)N(Cc1nnc(-c2ccccc2Cl)o1)C1CC1 | N
* N#Cc1ccc(Oc2cc(C(F)(F)F)nc(-c3ccccn3)n2)cc1 | N
* Cc1nc2ccccc2c(=O)n1-c1ccc(F)c(NC(=O)c2cccs2)c1 | N
* Cc1c(C(C)(C)O)[nH]c2ccc(C#N)cc12 | N
* O=C(O/N=C(/c1ccccc1)c1ccncc1)c1ccccc1[N+](=O)[O-] | N
* CCCc1ccc(OCC(O)CN2CCN(CCO)CC2)cc1 (configuration not stated) | Y
* Cc1oc2c(c1C(=O)N1CCOCC1)C(=O)c1ccccc1C2=O | Y
* CCOc1ccc(N(CC(=O)Nc2ccccc2F)S(=O)(=O)c2c(C)[nH]c(=O)[nH]c2=O)cc1 | N
* COc1ccc(Cc2nc(-c3ccccn3)no2)cc1OC | N
* O=C(CSc1nc2ccccc2[nH]1)Nc1nc(-c2ccccc2)c(-c2ccccc2)o1 | Y
* CC1CC(C)CN(S(=O)(=O)c2ccc(C(=O)NN3CCOCC3)cc2)C1 (configuration not stated) | N
* COC(=O)C1=C(c2ccc(F)cc2F)C[C@@H]2CC[C@H]1N2C(=O)NC1CC1 | N
* COc1cccc(N(CC(=O)NC2CCCC2)C(=O)CCCC(=O)Nc2ccccn2)c1 | N
* CCc1ccc(OCC(O)CN2CCN(CCO)CC2)cc1 (configuration not stated) | N
* COc1ccc(C2N=C(N)N=C(N)N2c2ccccc2)cc1OC (configuration not stated) | Y
* COC(=O)c1ccc(CNC(=O)C2CCC(=O)N(Cc3cccc(F)c3)C2)cc1 (configuration not stated) | N
* CCN1CCN(C(=O)C2CCCN(S(=O)(=O)c3ccc(OC)c(OC)c3)C2)CC1 (configuration not stated) | N
* COC(=O)C1=C(c2cccc(OCc3ccccc3)c2)C[C@@H]2CC[C@H]1N2C(=O)NNCc1ccccc1 | Y
* COc1ccccc1Oc1nc(-c2cccnc2)nc2ccccc12 | N
* COc1ccc(C2SCCN2S(=O)(=O)c2ccccc2)cc1OC (configuration not stated) | N
* COC(=O)C1=C(c2ccc(C(C)=O)cc2)C[C@@H]2CC[C@H]1N2C(=O)NCCNC(C)=O | N

---

Assay: Primary qHTS for delayed death inhibitors of the malarial parasite plastid, 96 hour incubation
Settings: P. falciparum luciferase reporter growth; series mostly up to 28.7 µM
Hit rate of the full screen: of about 320,000 compounds, about 22,000 (6.9%) were called active. About 27% were inconclusive and are not listed. Calls follow the shape of the dose curve; as a rule, active = well fitted inhibition curve with a large enough effect; inconclusive = small, poorly fitted or top-dose-only effect, or another doubt; inactive = no such curve, though single readings can be large or run the other way. The full list was thinned out, with actives kept by preference.
Classes used: yes = active, no = inactive

* COc1ccc(C(=O)N(C)CC(O)c2ccccc2)cc1OC1CCN(C(C)=O)CC1 (configuration not stated) | no
* CCN(CC)CCCNC(=O)c1c(O)c2cc(F)cc3c2n(c1=O)C(C)CC3 (configuration not stated) | no
* CCOc1ncccc1C(=O)OCC(=O)Nc1cccc(S(=O)(=O)N2CCCCCC2)c1 | no
* CC(=O)Nc1cccc(OCC(=O)/C=C2\N(C)c3ccccc3C2(C)C)c1 | yes
* CCOc1cc(C2C(C(=O)c3ccco3)=C(O)C(=O)N2Cc2ccccc2)ccc1O (configuration not stated) | no
* Cc1nc(-c2ccc(F)cc2)c(CC(=O)N(C)CC(=O)Nc2c(C)cccc2C)s1 | no
* COc1cccc(N2CC(NS(=O)(=O)c3ccc(Cl)cc3)CC2=O)c1 (configuration not stated) | no
* CCOC(=O)c1c(NC(=O)c2cccs2)sc(C)c1C | no
* COc1ccc(N(C)C(=O)C2CCN(S(=O)(=O)c3cccc4nsnc34)CC2)cc1 | no
* O=C(NNc1c2ccccc2nc2ccccc12)c1cc2ccccc2cc1O | yes
* CCc1ccc(C2C(C#N)=C(N)Oc3n[nH]c(CC(=O)OC)c32)cc1 (configuration not stated) | no
* COc1cccc(N(C(=O)C2COc3ccccc3O2)C(C(=O)NC2CCCCC2)c2ccc(O)cc2)c1 (configuration not stated) | no
* COc1cc(N2C(=O)CC3(CCCC3)CC2=O)cc(OC)c1OC | no
* COc1ccc(C(=O)NCCn2nc(C)cc2C)cc1OC1CCN(C(C)=O)CC1 | no
* CC(C)C[C@@H](COc1ccccc1)N1CCN(CC(C)C)CCC1=O | yes
* COc1cccc(N2CC(NC(=O)c3ccc4ccccc4c3)CC2=O)c1 (configuration not stated) | no
* COCCOC1CCN(C(=O)c2ccc(OC)c(OC3CCN(C(C)C)CC3)c2)CC1 | no
* CC(C)(C)OC(=O)NNc1c2ccccc2nc2ccccc12 | no
* CCCCNC(=O)N(O)C1N(/N=C/c2ccc(N(C)C)cc2)C(=S)SC1(C)C (configuration not stated) | no
* O=C(COC(=O)c1ccc(O)cc1O)NNC(=O)c1cccs1 | no
* CCOC(=O)c1c(NC(=S)NC(=O)/C=C/c2cccs2)sc(C)c1C | no
* Cc1cccc(NC(=O)CN2CCN(CC(=O)NCC3(N4CCCCC4)CCCCC3)CC2)c1C | no
* COc1cc2c(cc1OC)CC(=O)N(CCCN(C)C[C@H]1Cc3cc(OC)c(OC)cc31)CC2 | no
* Nc1cccc(S(=O)(=O)Nc2ccc(SC(F)F)cc2)c1 | no
* COc1ccccc1CN1CCCC(N2CCN(c3ccc(F)cc3)CC2)C1 (configuration not stated) | no
* CCCCNC(=O)N(O)C1N(/N=C/c2ccccc2O)C(=S)SC1(C)C (configuration not stated) | yes
* Cc1cc(NS(=O)(=O)c2ccccc2)no1 | no
* Cc1cc(C)n(S(=O)(=O)c2cccc([N+](=O)[O-])c2)n1 | no
* COc1ccc(C(C(=O)NC2CCCCC2)N(C(=O)c2snc(C(N)=O)c2N)c2ccccc2OC)cc1 (configuration not stated) | no
* COCCCNC(=O)CN1C(=O)CSc2ccc(S(=O)(=O)N3CCOCC3)cc21 | no
* CC(NCc1cccs1)C(=O)Nc1cc(Cl)cc(Cl)c1 (configuration not stated) | no
* O=C(c1cnc(Cl)c(Cl)c1)N1CCN(S(=O)(=O)c2ccc(F)cc2)CC1 | no
* COc1ccc(-c2[nH]nc3c2C(c2ccncc2)C(C#N)=C(N)O3)cc1 (configuration not stated) | yes
* Cc1noc(C)c1C(=O)OCC(=O)/C=C1\N(C)c2ccccc2C1(C)C | no
* Clc1ccc2c(c1)C1=C(C(c3ccncc3)O2)C(c2ccc(Br)cc2)n2ncnc2N1 (configuration not stated) | yes
* Cc1[nH]nc(-c2ccc(OCc3cnn(-c4ccccc4)c3)cc2O)c1Oc1ccc(Cl)cc1 | yes
* COc1cccc(C(=O)N2CCC(n3nccc3NC(=O)C3CCOC3)CC2)c1 (configuration not stated) | no
* CCOC(=O)c1c(NC(=O)/C=C/c2ccco2)sc(C)c1C | yes
* Cc1nc(-c2ccc(F)cc2)c(CC(=O)N2CCN(S(=O)(=O)c3ccc(F)cc3)CC2)s1 | yes
* O=C(O)CCCC(=O)N1N=C(c2ccco2)CC1c1ccco1 (configuration not stated) | no
* CCOc1c(OC)cc(C2C(C#N)=C(N)Oc3n[nH]c(-c4ccncc4)c32)cc1OC (configuration not stated) | no
* O=C1CCN(CCc2ccccc2)CCN1CCOc1ccccc1 | no
